pIC50: −log10 of the molar value.
Observed pIC50 for Human immunodeficiency virus type 1 integrase (Human immunodeficiency virus 1), reported per entry below.
REPORTED ENDPOINT: pIC50

C=C[C@@H]1C[C@]1(NC(=O)[C@@H]1C[C@@H](Oc2nccc3ccc(Cl)cc23)CN1C(=O)[C@@H](NC(=O)OC(C)(C)C)C(C)(C)C)C(=O)NS(=O)(=O)C1CC1 | 7.92
C=C[C@@H]1C[C@]1(NC(=O)[C@@H]1C[C@@H](Oc2ncc(OC)c3ccccc23)CN1C(=O)[C@@H](NC(=O)OC(C)(C)C)C(C)(C)C)C(=O)NS(=O)(=O)C1CC1 | 8.70
C=C[C@@H]1C[C@]1(NC(=O)[C@@H]1C[C@@H](Oc2nccc3ccccc23)CN1C(=O)[C@@H](NC(=O)OC(C)(C)C)C(C)(C)C)C(=O)NS(=O)(=O)C1CC1 | 8.15
